- System: K4 kissing-loop RNA reporter;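 also: bound reporter read as fluorescence of individual clusters on recovered sequencing chips by microscopy, with normalized cluster intensities fitted with a binding model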
- Method: apparent KD of K4 kissing-loop reporter; higher = weaker reporter binding
- Condition: Eterna round: R107; input ligand: theophylline 20 uM
Some sequences, each annotated with its measured apparent KD of K4 kissing-loop reporter.
Give the value, in units of µM, as a plain number.

The cases that follow already have their apparent KD of K4 kissing-loop reporter on record.
INSERT INTO measurements (polymer_sequence, readout_kind, units_symbol, recorded_number) VALUES
  ('UGGAGUUGACGAAAAGUCAACUCCUGAGAUACCAGUGACGAAAGUCACCCUUGGCAGCUCACUCCCAGUGAUGUUGGUUCAUAAG [#04 K4 Theophylline A Same State]', 'apparent KD of K4 kissing-loop reporter', 'µM', 0.496),
  ('GAUUCUGUUCGAAAGAACGGAAUCACGGAAGGAGCGAGAGAAAUCUCAGGUAGGUCGCCGAAUUUUAGAUAGUGAUGUUAUCAUU [Arginine A K4 1]', 'apparent KD of K4 kissing-loop reporter', 'µM', 0.856),
  ('GGCAGUGAUGUUGCCAGUGGCAGAUGCGAAGGAGCGCGGUGAGACGCAGGUAGGUCGCGCAUUGAAAUUGCUGUCACUAAAAUGC [#1]', 'apparent KD of K4 kissing-loop reporter', 'µM', 0.32),
  ('UGUCAUUGGUCUGAUACCAGUCCCUUGGCAGCCAAAUGGAGUGAUGUUCCAAGGAUACCAGACCCUUGGCAGCAGACCGAUGACU [TheoBS 26 #DoubleAptamer #SwitchBubble]', 'apparent KD of K4 kissing-loop reporter', 'µM', 0.377);

Query the reported apparent KD of K4 kissing-loop reporter for K4 kissing-loop RNA reporter; item: GUUACGCAUGGAAGGAGCGCAUGCUCAACAAUAAGCUCAGUGAUGUUGAGCAAAAUUAAAAUGCAGGUAGGUCGCCAUGUGUAAC [Ex Arginine B K4 28]
0.528

Query the reported apparent KD of K4 kissing-loop reporter for K4 kissing-loop RNA reporter; item: UGAUACCAGGCGGCCGCCACUCCUACAGGUCAAAGACCUGUAGAACUGGUUUUUUAGUGAUGUUGGAGGACCGGGCCUGGUAUCU [FiskerMod 30 - Jieux - Exclusion - Tryptophan B]
0.296

Query the reported apparent KD of K4 kissing-loop reporter for K4 kissing-loop RNA reporter; item: AGAUGACACGGAGGAUAUCCUAAUAUGGGUGAUGUUAGCGAUGUUGAAGGUGUAGUGAUGUUAUGCGGAGAAGGCCGUGUUGUUU [BDazzled - #22 - Exc. FMN B]
0.102

---

- Tested on: MS2 coat protein
- Method: apparent KD of MS2 coat protein; higher = weaker reporter binding
- Condition: Eterna round: R107; input ligand: theophylline 20 uM
Note to self: values exactly at 60 nM are 1. So apparent KD of MS2 coat protein at or above 60 nM is 1, below is 0.

INSERT INTO assay_data (polymer_sequence, assigned_label) VALUES
  ('GAGGCACGGUCGGCCGCCACUACAGCAGUGGUCCGCCAAGCGAGGUACAUGAGGAUCACCCAUGUUAGGACCGGGACCUGUUUUU [theeternabot_exclusion_MS2_Trp_B_27]', 0);

# bool: apparent KD of MS2 coat protein of ACGACGCAUAGUGAUACCAGUAGAACAUGAGGAUCACCCAUGUCAGAUAUGUUCUAAUACUGCCCUUGGCAGCACUAUGCGUCAG [SSTheo B #4] >= 60 nM
1

# bool: apparent KD of MS2 coat protein of CGUAUUACGAAAGUAGUACGUAGUGUUCGACGAGGACCGGUACGGCCGCCACUCGGACAUGAGGAUCACCCAUGUAGCGAAAGCU [Tryptophan A 24] >= 60 nM
1

# bool: apparent KD of MS2 coat protein of AGAACCCAAGAGGAUACCAGAACGACAAUCAAAUCUUUUUACAUGAGGAUCACCCAUGUUUUCCCUUGGCAGCCUCAUGCACGAC [theeternabot_exclusion_MS2_Theo_B_43] >= 60 nM
1

# bool: apparent KD of MS2 coat protein of AGUUAAAUAUGUUAAUAACUAUUUACUGAAGGAGCGUGUUUUGACACAGGUAGGUCGCAGUGACAUGAGGAUCACCCAUGUCGUA [#08 Same State - Arginine A] >= 60 nM
0
